FYI, the data here is from paper PMC9416004.

System: HCoV-229E
Assay Comment: Cytopathic effect (CPE) reduction assay with HCoV-229E in HEL cells
Format: cell-based, human coronavirus 229E
Assay Setup: Human coronavirus 229E, 120 h; HCoV-229E-infected HEL cells; protection against virus-induced CPE by MTS cell viability assay; five days at 35 °C; read-out: Antiviral EC50 MTS
pEC50: −log10 of the molar value.
Quantity Measured: pEC50

1. CC(C)(C)OC(=O)NC(Cc1ccc(Cl)cc1)C(=O)N(Cc1ccccc1)C1(C(=O)NCc2ccccc2)CCN(Cc2ccccc2)CC1 (stereo not shown) [Compound 50] :: 5.01
2. CC(C)(C)OC(=O)N[C@@H](Cc1ccccc1)C(=O)N(Cc1ccc(F)cc1)C1(C(=O)NCc2ccccc2)CCN(Cc2ccccc2)CC1 [Compound 45] :: 5.96
3. COC(=O)C[C@H](NC(=O)OC(C)(C)C)C(=O)N(Cc1cccc(F)c1)C1(C(=O)NCc2ccccc2)CCN(Cc2ccccc2)CC1 [Compound 27] :: 4.85
4. COC(=O)C[C@H](NC(=O)OCc1ccccc1)C(=O)N(Cc1ccccc1)C1(C(=O)NCc2ccccc2)CCN(CCc2ccc(C)cc2)CC1 [Compound 54] :: 5.08
5. COC(=O)C[C@H](NC(=O)OCc1ccccc1)C(=O)N(Cc1ccc(F)cc1)C1(C(=O)NCc2ccccc2)CCN(Cc2ccccc2)CC1 [Compound 34] :: 5.47
6. COc1ccc(CC(NC(=O)OC(C)(C)C)C(=O)N(Cc2ccccc2)C2(C(=O)NCc3ccccc3)CCN(Cc3ccccc3)CC2)cc1 (stereo not shown) [Compound 51] :: 5.32

----------
Measured Cytotoxicity MCC (minimal cytotoxic concentration), listed per entry for reference.
Test system: human embryonic lung (HEL) fibroblast cells
Assay Setup: mock-infected HEL cells; microscopically visible alterations in cell morphology
Quantity Measured: Cytotoxicity MCC (minimal cytotoxic concentration) (µM)

1. COC(=O)CCC(=O)N(Cc1ccc(F)cc1)C1(C(=O)NCc2ccccc2)CCN(Cc2ccccc2)CC1 :: 100
2. C[C@H](NC(=O)OC(C)(C)C)C(=O)N(Cc1ccc(F)cc1)C1(C(=O)NCc2ccccc2)CCN(Cc2ccccc2)CC1 :: 100

----------
Assay Comment: in vitro
Assay Setup: human
Quantity Measured: CC50 (µM)

1) COC(=O)C[C@H](NC(=O)OC(C)(C)C)C(=O)N(Cc1ccc(F)c(F)c1)C1(C(=O)NCc2ccccc2)CCN(Cc2ccccc2)CC1 :: 23
2) COC(=O)C[C@H](NC(=O)OC(C)(C)C)C(=O)N(C1CC1)C1(C(=O)NCc2ccccc2)CCN(Cc2ccccc2)CC1 :: 14
3) CC(C)(C)OC(=O)NCC(=O)N(Cc1ccccc1)C1(C(=O)NCc2ccccc2)CCN(Cc2ccccc2)CC1 :: 49
4) COC(=O)C[C@H](NC(=O)OC(C)(C)C)C(=O)N(Cc1ccccc1F)C1(C(=O)NCc2ccccc2)CCN(Cc2ccccc2)CC1 :: 44
5) COC(=O)C[C@H](NC(=O)OC(C)(C)C)C(=O)N(Cc1ccc(F)cc1)C1(C(=O)NCc2ccccc2)CCN(Cc2ccccc2)CC1 :: 44

----------
System: human embryonic lung (HEL) fibroblast cells
Assay Setup: mock-infected HEL cells; microscopically visible alterations in cell morphology
Quantity Measured: Cytotoxicity MCC (minimal cytotoxic concentration) (µM)

1. COC(=O)C[C@H](NC(=O)OCc1ccccc1)C(=O)N(Cc1ccccc1)C1(C(=O)NCc2ccccc2)CCN(CCc2ccccc2)CC1 [Compound 53] :: 40
2. COC(=O)C[C@H](NC(=O)OC(C)(C)C)C(=O)N(Cc1ccc(Cl)cc1)C1(C(=O)NCc2ccccc2)CCN(Cc2ccccc2)CC1 [Compound 25] :: 50
3. COC(=O)C[C@H](NC(=O)OCc1ccccc1)C(=O)N(C1CC1)C1(C(=O)NCc2ccccc2)CCN(Cc2ccccc2)CC1 [Compound 37] :: 11
4. COC(=O)C[C@H](NC(=O)OC(C)(C)C)C(=O)N(Cc1ccc(C)cc1)C1(C(=O)NCc2ccccc2)CCN(Cc2ccccc2)CC1 [Compound 22] :: 75
5. COC(=O)C[C@H](NC(=O)OC(C)(C)C)C(=O)N(Cc1ccc(F)cc1)C1(C(=O)NCc2ccccc2)CCN(Cc2cc(F)cc(F)c2)CC1 [Compound 10] :: 70
6. COC(=O)C[C@H](NC(=O)OC(C)(C)C)C(=O)N(Cc1ccc(F)c(F)c1)C1(C(=O)NCc2ccccc2)CCN(Cc2ccccc2)CC1 [Compound 28] :: 44
7. COC(=O)C[C@H](NC(=O)OCc1ccccc1)C(=O)N(Cc1ccccc1)C1(C(=O)NCc2ccccc2)CCN(CCc2ccc(C)cc2)CC1 [Compound 54] :: 40
8. CC(C)(C)OC(=O)NCC(=O)N(Cc1ccccc1)C1(C(=O)NCc2ccccc2)CCN(Cc2ccccc2)CC1 [Compound 39] :: 100
9. COC(=O)C[C@H](NC(=O)OC(C)(C)C)C(=O)N(Cc1ccccc1F)C1(C(=O)NCc2ccccc2)CCN(Cc2ccccc2)CC1 [Compound 26] :: 100
10. COC(=O)C[C@H](NC(=O)OC(C)(C)C)C(=O)N(C1CC1)C1(C(=O)NCc2ccccc2)CCN(Cc2ccccc2)CC1 [Compound 21] :: 50

----------
Tested on: HCoV-229E
Assay Comment: Cytopathic effect (CPE) reduction assay with HCoV-229E in HEL cells
Assay type: cell-based, human coronavirus 229E
Assay Setup: Human coronavirus 229E, 120 h; HCoV-229E-infected HEL cells; protection against virus-induced CPE by MTS cell viability assay; five days at 35 °C; read-out: Antiviral EC50 MTS
pEC50: −log10 of the molar value.
Binary label based on pEC50 with cut-off 5: below gives Satisfied, not below gives Not satisfied.

1. COC(=O)CNC(=O)C1(N(Cc2ccccc2)C(=O)[C@H](CC(=O)OC)NC(=O)OC(C)(C)C)CCN(Cc2ccccc2)CC1 [Compound 17] :: Satisfied
2. CC(C)(C)OC(=O)NC(Cc1ccccc1)C(=O)N(Cc1ccccc1)C1(C(=O)NCc2ccccc2)CCN(Cc2ccc(Cl)cc2)CC1 (stereo not shown) [Compound 61] :: Satisfied
3. CC(C)(C)OC(=O)NC(Cc1ccccc1)C(=O)N(Cc1ccccc1)C1(C(=O)NCc2ccccc2)CCN(Cc2ccc(F)cc2)CC1 (stereo not shown) [Compound 60] :: Not satisfied
4. COC(=O)C[C@H](N)C(=O)N(Cc1ccc(F)cc1)C1(C(=O)NCc2ccccc2)CCN(Cc2ccccc2)CC1 [Compound 31] :: Not satisfied
5. O=C(N/C(=C\c1ccccc1)C(=O)N1CCC(O)(c2ccc(Br)cc2)CC1)c1ccccc1 [Compound K22, reference compound] :: Not satisfied
6. COC(=O)C[C@H](NC(=O)OC(C)(C)C)C(=O)N(Cc1ccc(F)cc1)C1(C(=O)NCS(=O)(=O)c2ccc(C)cc2)CCN(Cc2ccccc2)CC1 [Compound 14] :: Satisfied
7. C[C@H](NC(=O)OC(C)(C)C)C(=O)N(Cc1ccc(F)cc1)C1(C(=O)NCc2ccccc2)CCN(Cc2ccccc2)CC1 [Compound 38] :: Satisfied
8. Cc1ccc(CC(NC(=O)OC(C)(C)C)C(=O)N(Cc2ccccc2)C2(C(=O)NCc3ccccc3)CCN(Cc3ccccc3)CC2)cc1 (stereo not shown) [Compound 52] :: Not satisfied
9. COC(=O)C[C@H](NC(=O)OC(C)(C)C)C(=O)N(Cc1ccccc1)C1(C(=O)NCc2ccccc2)CCN(Cc2ccccc2)CC1 [Compound 1] :: Satisfied
10. COC(=O)C[C@H](NC(=O)OC(C)(C)C)C(=O)N(Cc1ccc(Cl)cc1)C1(C(=O)NCc2ccccc2)CCN(Cc2ccccc2)CC1 [Compound 25] :: Not satisfied
11. COC(=O)C[C@H](NC(=O)OCc1ccccc1)C(=O)N(Cc1ccc(C)cc1)C1(C(=O)NCc2ccccc2)CCN(CCc2ccccc2)CC1 [Compound 59] :: Not satisfied
12. COC(=O)C[C@H](NC(=O)OCc1ccccc1)C(=O)N(Cc1ccccc1)C1(C(=O)NCc2ccccc2)CCN(CCc2ccccc2)CC1 [Compound 53] :: Not satisfied
13. COC(=O)C[C@H](NC(=O)OCc1ccccc1)C(=O)N(Cc1ccccc1)C1(C(=O)NCc2ccccc2)CCN(Cc2ccccc2)CC1 [Compound 33] :: Not satisfied

----------
Test system: HCoV-229E
Assay Comment: Cytopathic effect (CPE) reduction assay with HCoV-229E in HEL cells
Type: cell-based, human coronavirus 229E
Assay Setup: Human coronavirus 229E, 120 h; HCoV-229E-infected HEL cells; protection against virus-induced CPE by microscopic scoring; five days at 35 °C; read-out: Antiviral EC50 Microscopy
Quantity Measured: EC50 (µM)

1. COC(=O)C[C@H](NC(=O)OC(C)(C)C)C(=O)N(CCNc1ccccc1)C1(C(=O)NCc2ccccc2)CCN(Cc2ccccc2)CC1 :: 3
2. COc1ccc(CN2CCC(C(=O)NCc3ccccc3)(N(Cc3ccccc3)C(=O)C(Cc3ccccc3)NC(=O)OC(C)(C)C)CC2)cc1 (stereo not shown) :: 5.9
3. COC(=O)C[C@H](N)C(=O)N(Cc1ccc(F)cc1)C1(C(=O)NCc2ccccc2)CCN(Cc2ccccc2)CC1 :: 3.3
4. COC(=O)C[C@H](NC(=O)OC(C)(C)C)C(=O)N(Cc1ccc(F)cc1)C1(C(=O)NC(C)(C)C)CCN(Cc2ccccc2)CC1 :: 11
5. COC(=O)C[C@H](NC(=O)OCc1ccccc1)C(=O)N(C1CC1)C1(C(=O)NCc2ccccc2)CCN(Cc2ccccc2)CC1 :: 3
6. COC(=O)CCC(=O)N(Cc1ccc(F)cc1)C1(C(=O)NCc2ccccc2)CCN(Cc2ccccc2)CC1 :: 13
7. COC(=O)C[C@H](NC(=O)OC(C)(C)C)C(=O)N(Cc1ccc(C)cc1)C1(C(=O)NCc2ccccc2)CCN(Cc2ccccc2)CC1 :: 3.1
8. COC(=O)C[C@H](NC(=O)OC(C)(C)C)C(=O)NC1(C(=O)NCc2ccccc2)CCN(Cc2ccccc2)CC1 :: 55
9. CCC(C)N(C(=O)[C@H](CC(=O)OC)NC(=O)OC(C)(C)C)C1(C(=O)NCc2ccccc2)CCN(Cc2ccccc2)CC1 (stereo partly shown) :: 14
10. COC(=O)C[C@H](NC(=O)OC(C)(C)C)C(=O)N(Cc1ccc(F)cc1)C1(C(=O)NCc2ccccc2)CCN(Cc2cc(F)cc(F)c2)CC1 :: 15
11. C[C@H](NC(=O)OC(C)(C)C)C(=O)N(Cc1ccc(F)cc1)C1(C(=O)NCc2ccccc2)CCN(Cc2ccccc2)CC1 :: 12
12. COC(=O)C[C@H](NC(=O)OCc1ccccc1)C(=O)N(Cc1ccccc1)C1(C(=O)NCc2ccccc2)CCN(CCc2ccc(F)cc2)CC1 :: 7.6
13. COC(=O)C[C@H](NC(=O)OCc1ccccc1)C(=O)N(Cc1ccccc1)C1(C(=O)NCc2ccccc2)CCN(Cc2ccccc2)CC1 :: 3
